- system-name: T1, APBA3_1, O96018
- T1 sequence (O96018 389-490, limits assumed, looked up): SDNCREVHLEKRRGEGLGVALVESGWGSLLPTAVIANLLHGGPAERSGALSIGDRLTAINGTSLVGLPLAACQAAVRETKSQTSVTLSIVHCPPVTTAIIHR
- assay-remarks: holdup assay
- Set-up: key: below the threshold = too weak to quantify, mostly under pKd 3.1 to 4
- study-conditions: plain residues with an end cap or a label only (N-terminal biotin on a linker: ado-ado)

[
  {
    "binder": "QSLNRMEYIV [JAG1, P78504]",
    "pKd": "below the threshold"
  },
  {
    "binder": "VKPQVSESKL [ACOT8, O14734]",
    "pKd": "below the threshold"
  },
  {
    "binder": "PEYLGLDVPV [ERBB2, P04626]",
    "pKd": "below the threshold"
  },
  {
    "binder": "SKSNFGSEPL [KIF17, Q9P2E2]",
    "pKd": "below the threshold"
  },
  {
    "binder": "SNAGNTATKA [NOSTRIN, Q8IVI9]",
    "pKd": "below the threshold"
  },
  {
    "binder": "QHKTQLQTLI [BPIFA2, Q96DR5]",
    "pKd": "below the threshold"
  },
  {
    "binder": "EVNETDDTKM [KCNJ1, P48048]",
    "pKd": "below the threshold"
  },
  {
    "binder": "SGSLKLMTTV [DACT1, Q9NYF0]",
    "pKd": "below the threshold"
  }
]
